System: SNU-5;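 further: cell viability readout used to measure growth inhibition in human NCI-SNU-5 cells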
method: cells
Format: functional, cell-based, Homo sapiens
assay-context: Homo sapiens, SNU-5
Description: SANGER: Inhibition of human NCI-SNU-5 cell growth in a cell viability assay.
pIC50: −log10 of the molar value.
The following compounds are shown together with reported pIC50 values.
test-readout: pIC50

>>> meas_value("Cc1ccc(-n2nc(C(C)(C)C)cc2NC(=O)Nc2ccc(OCCN3CCOCC3)c3ccccc23)cc1")
"< 5.00"
>>> meas_value("OC[C@H](Cc1ccccc1)Nc1nc(Oc2ccc3c(c2)CCC3)nc2c1ncn2Cc1ccc(-c2ccccc2)cc1")
"< 4.99"
>>> meas_value("NC(=O)c1ccc(N(C(N)=O)c2c(F)cccc2F)nc1-c1ccc(F)cc1F")
"< 5.70"
>>> meas_value("COC(=O)[C@H](CCSC)NC(=O)c1ccc(NC[C@@H](N)CS)cc1-c1ccccc1")
"< 5.99"
>>> meas_value("Cc1ccc(C(=O)Nc2ccc(CN3CCN(C)CC3)c(C(F)(F)F)c2)cc1C#Cc1cnc2cccnn12")
"< 6.29"
>>> meas_value("COc1cc(N2CCC(N3CCN(C)CC3)CC2)ccc1Nc1ncc(Cl)c(Nc2ccccc2S(=O)(=O)C(C)C)n1")
"< 5.70"
>>> meas_value("NC1(c2ccc(-c3nc4ccn5c(=O)[nH]nc5c4cc3-c3ccccc3)cc2)CCC1")
"< 5.40"
>>> meas_value("O=C1NC(=O)c2c1c(-c1ccccc1Cl)cc1[nH]c3ccc(O)cc3c21")
"< 5.70"
>>> meas_value("COc1ccc(-c2cc3nccn3c(Nc3ncccc3C(N)=O)n2)cc1OC")
"< 5.10"
>>> meas_value("Cc1cc(N2CCOCC2)cc2[nH]c(-c3c(NC[C@@H](O)c4cccc(Cl)c4)cc[nH]c3=O)nc12")
"< 5.29"

* * *

Test system: U-251;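 further: growth inhibition of human U-251 cells, read out through a cell viability assay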
method: cells
Type: functional, cell-based
assay-context: Homo sapiens
Description: SANGER: Inhibition of human U251 cell growth in a cell viability assay.
pIC50: −log10 of the molar value.
test-readout: pIC50

>>> meas_value("COC(=O)[C@H](CCSC)NC(=O)c1ccc(NC[C@@H](N)CS)cc1-c1ccccc1")
"< 5.99"
>>> meas_value("CN(NC(=O)CC(=O)NN(C)C(=S)c1ccccc1)C(=S)c1ccccc1")
8.01
>>> meas_value("COc1ccc(-c2cc3nccn3c(Nc3ncccc3C(N)=O)n2)cc1OC")
"< 5.10"
>>> meas_value("O=C1NC(=O)c2c1c(-c1ccccc1Cl)cc1[nH]c3ccc(O)cc3c21")
"< 5.70"
>>> meas_value("C/C(=C\\c1csc(C)n1)[C@@H]1C[C@@H]2O[C@]2(C)CCC[C@H](C)[C@H](O)[C@@H](C)C(=O)C(C)(C)[C@@H](O)CC(=O)O1")
7.97
>>> meas_value("Cc1ccc(-n2nc(C(C)(C)C)cc2NC(=O)Nc2ccc(OCCN3CCOCC3)c3ccccc23)cc1")
"< 5.00"
>>> meas_value("CS(=O)(=O)N1CCN(Cc2cc3nc(-c4cccc5[nH]ncc45)nc(N4CCOCC4)c3s2)CC1")
"< 5.40"
>>> meas_value("CN(C)CCOc1ccc(-c2nc(-c3ccncc3)c(-c3ccc4c(c3)CC/C4=N\\O)[nH]2)cc1")
"< 5.30"

* * *

Test system: HCC2157;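 further: growth inhibition of the cancer cell line, read out as cell viability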
method: cells
Assay type: functional, cell-based, Homo sapiens
assay-context: Homo sapiens, HCC2157
Description: SANGER: Inhibition of human HCC2157 cell growth in a cell viability assay.
pIC50: −log10 of the molar value.
The following compounds are shown together with reported pIC50 values.
test-readout: pIC50

>>> meas_value("Cc1ccc(-n2nc(C(C)(C)C)cc2NC(=O)Nc2ccc(OCCN3CCOCC3)c3ccccc23)cc1")
"< 5.00"
>>> meas_value("Cc1ccc(C(=O)Nc2ccc(CN3CCN(C)CC3)c(C(F)(F)F)c2)cc1C#Cc1cnc2cccnn12")
"< 6.29"
>>> meas_value("C/C(=C\\c1csc(C)n1)[C@@H]1C[C@@H]2O[C@]2(C)CCC[C@H](C)[C@H](O)[C@@H](C)C(=O)C(C)(C)[C@@H](O)CC(=O)O1")
8.89
>>> meas_value("COc1ccc(-c2cc3nccn3c(Nc3ncccc3C(N)=O)n2)cc1OC")
"< 5.10"
>>> meas_value("O=C1NC(=O)c2c1c(-c1ccccc1Cl)cc1[nH]c3ccc(O)cc3c21")
5.80
>>> meas_value("Cc1ccc(NC(=O)c2ccc(CN3CCN(C)CC3)cc2)cc1Nc1nccc(-c2cccnc2)n1")
"< 5.70"
>>> meas_value("C[C@@H](Oc1cc(-c2cnn(C3CCNCC3)c2)cnc1N)c1c(Cl)ccc(F)c1Cl")
"< 5.70"
